Entry source: PubChem BioAssay (EPA / NIEHS)

- subject of test: Androgen Receptor/SRC-1 Co-activator, AR (gene 367)
- assay remarks: OT_AR_ARSRC1_0480: Odyssey Thera (OT) 8-hour HEK293T Protein-Complementation Assay for Androgen Receptor/SRC-1 Co-activator (AID 2283354);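 note: hits raise the complementation signal above DMSO so AC50 marks enhancers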
- Procedure: OT_AR_ARSRC1_0480 is a cell-based, single-readout assay that uses HEK293T, a human kidney cell line, with measurements taken at 8 hours after chemical dosing in a 384-well plate.OT_AR_ARSRC1_0480 is one of one assay component(s) measured or calculated from the OT_AR_ARSRC1_0480 assay. […] This assay endpoint, OT_AR_ARSRC1_0480, was analyzed in the positive analysis fitting direction relative to DMSO as the negative control and baseline of activity. […]
Inconclusive results are not listed. Calls of active or inactive are those of the source. Rule for the calls: active = hit-call score of the fitted dose curve at least 0.9, where 1 is the maximum; inconclusive = response in the unintended direction; inactive = score below 0.9.
measured parameter: AC50

C=CC(=O)NCNC(=O)C=C
inactive
CCC(=O)O[C@H]1CC[C@H]2[C@@H]3CCC4=CC(=O)CC[C@]4(C)[C@H]3CC[C@]12C
29.9 nM (active) [middle of 6 runs]
NS(=O)(=O)C(F)(F)C(F)(F)C(F)(F)C(F)(F)C(F)(F)C(F)(F)C(F)(F)C(F)(F)F
inactive
CCCCCCCCOC(=O)c1ccccc1C(=O)OCCCCCCCC
inactive
CCNc1nc(NC(C)C)nc(SC)n1
inactive
Cc1ccccc1CO[C@@H]1C[C@@]2(C(C)C)CC[C@]1(C)O2
inactive

Prompt: # input compound: CCOC(=O)C(O)(c1ccc(Cl)cc1)c1ccc(Cl)cc1 ; wanted: its AC50
Response: 66.7 µM (active)
